Ref: the supplement of paper PMC10201428

B1: library; a variant is named by its letters at N, in order (parent)
chain: ACATTTGTTGATACAACCATAAAATGATAATTACACCCATAAATTGATAATTATCACACCCANNNNNNNNNNNNNNCTCTGATCATAGTCAGACCAACATTGCTACGACCCGTATTCGCACCGACAC

# Variants of: B1
# protocol_details: relative integration efficiency (T-LR orientation) vs wild-type transposon end (log2 (normalized fold change)); transposon end mutated: right end (5 bp flank + 75 bp right end); higher = more efficient transposition
# run_conditions: with VchCAST RNA-guided transposition machinery (E. coli BL21(DE3) host, lacZ target)
Listed here: items and their measured relative integration efficiency (log2).
Respond numerically, and do not add a unit to the figure.

[[record]]
mutation_key = "TAAGTTGATATTGC"
measured_parameter = "relative integration efficiency (log2)"
numeric_readout = 0.2

[[record]]
mutation_key = "ATTTAACTATAACG T6G"
measured_parameter = "relative integration efficiency (log2)"
numeric_readout = -5.38

[[record]]
mutation_key = "TAAATTGATATTGC A56G"
measured_parameter = "relative integration efficiency (log2)"
numeric_readout = 0.362

[[record]]
mutation_key = "TAACGTGATATTGC"
measured_parameter = "relative integration efficiency (log2)"
numeric_readout = 0.67

[[record]]
mutation_key = "TAAATTGATATTGC T6G"
measured_parameter = "relative integration efficiency (log2)"
numeric_readout = -5.28

[[record]]
mutation_key = "ATTTAACTATAACG G46A"
measured_parameter = "relative integration efficiency (log2)"
numeric_readout = 2.01

[[record]]
mutation_key = "ATTTAACTATAACG A50T"
measured_parameter = "relative integration efficiency (log2)"
numeric_readout = 2.34

[[record]]
mutation_key = "TAAATTGATATTGC T51G"
measured_parameter = "relative integration efficiency (log2)"
numeric_readout = -0.118


Prompt: Recorded relative integration efficiency (log2) of TAAATTGATATTGC C60G , please.
Response: 0.315

Prompt: Looking for the measured relative integration efficiency (log2) of TAAATTGATATTGC T31G , can you help?
Response: 0.2
